Experiment: Fraction unbound in Sprague-Dawley CD rat brain at 56 mg/kg, sc after 4 hrs
Assay type: ADME, organism-based
Design: dose 56 mg/kg, route subcutaneous
endpoint.label: fraction unbound at 4 h

Input O=c1[nH]c2ccccc2cc1O . Output fraction unbound at 4 h: 0.22

====

Assay: Ratio of drug level in brain to plasma in Sprague-Dawley CD rat at 56 mg/kg, sc after 4 hrs
Type: ADME, organism-based
Design: dose 56 mg/kg, route subcutaneous
Conditions: read-out: BPR
endpoint.label: Kp at 4 h
One number for each entry.

Input O=c1[nH]c2ccccc2cc1O . Output Kp at 4 h: 0.7

====

Exercise: state measured Kp at 4 h for each of the compounds provided.
Test: Ratio of drug level in brain to plasma in 129/SVEV mouse at 10 mg/kg, sc after 4 hrs
Settings: read-out: BPR
Numbers only.

Look over these answered cases.
# query.smiles, Kp at 4 h
rows = [
    ("O=c1[nH]c2ncc(F)c(Cl)c2cc1O", 0.1),
    ("O=c1[nH]c2ccccc2cc1O", 2),
]

Input O=C(O)c1cc2occc2[nH]1 . Output Kp at 4 h: 0.8

====

Exercise: state measured bioavailability for each of the molecules provided.
Assay: Oral bioavailability in Sprague-Dawley CD rat at 3 mg/kg
Type: ADME, organism-based
Details: in vivo
One number for each entry, in %.

Look over these answered cases.
# query.smiles, bioavailability [%]
data = [
    ("O=c1[nH]c2cc(F)ccc2cc1O", 38),
    ("O=c1[nH]c2ccc(F)cc2cc1O", 44),
]

Turning now to a further molecule:
Input O=c1[nH]c2ccccc2cc1O . Output bioavailability: 0.9

====

Test system: Rattus norvegicus
Experiment: Volume of distribution in Sprague-Dawley CD rat at 3 mg/kg, po and 1 mg/kg, iv
Assay type: ADME, organism-based
Conditions: in vivo
Exercise: state measured Vd for each of the molecules provided.
Answers are plain numbers, in L/kg.

Respectfully, I request Vd for each entry included below.
1. O=c1[nH]c2cc(F)ccc2cc1O
2. O=c1[nH]c2ccc(F)cc2cc1O
3. O=c1[nH]c2ccccc2cc1O

OUT:
[1.2, 2.3, 10.8]

====

Assay: Dissociation constant, pKa of the compound
Format: physicochemical
endpoint.label: pKa
Give bare numbers.

Look over these answered cases.
# query.smiles, reading
records = [
    ("Cc1cc(C(=O)O)n[nH]1", 4),
    ("O=C(O)c1cc2occc2[nH]1", 4),
    ("O=c1[nH]c2ccccc2cc1O", 8.7),
]

Input Oc1noc2cc(Cl)ccc12 . Output pKa: 4

====

Target: UniProt:Q99489
Sequence (Q99489 whole entry): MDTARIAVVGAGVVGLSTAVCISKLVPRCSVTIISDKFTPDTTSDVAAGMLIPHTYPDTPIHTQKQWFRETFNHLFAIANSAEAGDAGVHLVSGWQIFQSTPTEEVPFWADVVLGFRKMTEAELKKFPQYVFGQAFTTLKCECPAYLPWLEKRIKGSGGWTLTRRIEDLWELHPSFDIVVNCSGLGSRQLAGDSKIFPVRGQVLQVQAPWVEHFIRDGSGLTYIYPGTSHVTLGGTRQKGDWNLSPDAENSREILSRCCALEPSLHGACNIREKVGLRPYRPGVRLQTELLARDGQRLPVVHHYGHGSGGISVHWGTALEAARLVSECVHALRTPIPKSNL
Assay: Inhibition of human recombinant DDO expressed in sf9 insect cells assessed as degradation of D-aspartic acid by fluorescence assay
pIC50: −log10 of the molar value.
# pIC50 >= 4 gives 1 (yes), anything below gives 0 (no)

Past entries and their recorded results:
# query.smiles, target.desc, answer.label
records = [
    ("Cc1cccc2cc(O)c(=O)[nH]c12", "UniProt:Q99489", "1 (yes)"),
    ("O=c1[nH]c2cc(F)ccc2cc1O", "UniProt:Q99489", "1 (yes)"),
    ("Cc1c(O)c(=O)[nH]c2ccccc12", "UniProt:Q99489", "1 (yes)"),
    ("O=c1[nH]c2cccc(Cl)c2cc1O", "UniProt:Q99489", "0 (no)"),
    ("Cc1ccc2cc(O)c(=O)[nH]c2c1", "UniProt:Q99489", "1 (yes)"),
]

// next entry
IN: Textbook exercise: given the entry O=c1[nH]c2cccc(F)c2cc1O , state whether its pIC50 is greater than or equal to 4.
OUT: 1 (yes)
